# Tested on: HCT-116
# Method summary: Increase in acetylated alpha tubulin level in human HCT116 cells at 10 uM after 24 hrs relative to control
# Format: functional
For each of the molecules below, state its Fold change.

Here's what some known entries look like.
CN(C)c1ccc(CNCCCCNCCCNC(=O)CCCCCCC(=O)NO)cc1
6.76
O=C(CCCCC(=O)NCCCNCCCCNCCSc1ccccc1)NO
72.9
CC(C)c1ccc(CNCCCCNCCCNC(=O)CCCCC(=O)NO)cc1
75.7
O=C(CCCCCCCCC(=O)NCCCNCCCCNCCC(c1ccccc1)c1ccccc1)NO
1.97
CC(C)(C)c1ccc(CNCCCCNCCCNC(=O)CCCCCCC(=O)NCc2ccc(C(=O)Nc3ccccc3N)cc2)cc1
2.27
CC(C)(C)c1ccc(CNCCCCNCCCNC(=O)CCCCCC(=O)NO)cc1
253.25

Hi there! I need Fold change for each item below, if you can.
1. CC(C)c1ccc(CNCCCCNCCCNC(=O)CCCCCCC(=O)NO)cc1
2. CC(C)(C)c1ccc(CNCCCCNCCCNC(=O)CCCCCCCC(=O)NO)cc1
3. O=C(CCCCC(=O)NCCCNCCCCNCc1ccccc1-c1ccccc1)NO
4. O=C(CCCCCCC(=O)NCCCNCCCCNCc1ccccc1-c1ccccc1)NO
5. CN(C)c1ccc(CN(CCCNCCCCN)C(=O)CCCCCCC(=O)NO)cc1
6. O=C(CCCCCCC(=O)NCCCNCCCCNCCSc1ccccc1)NO

Solution:
[11.98, 11.99, 89.01, 36.3, 6.07, 101.36]

---

# Study system: Histone deacetylase (Homo sapiens) (UniProt Q13547+O15379+Q9UBN7+Q92769+Q9UQL6+Q8WUI4+Q9BY41+Q96DB2+P56524+Q9UKV0+Q969S8)
# Assay conditions: HeLa, at 1 µM
# Description: Inhibition of human HDAC in HeLa cells at 1 uM
Record rule met whenever inhibition is at 50% or higher; record rule not met when lower.

Would you please look over these solved cases?
CC(C)c1ccc(CNCCCCNCCCNC(=O)CCCCC(=O)NO)cc1
rule not met
O=C(CCCCC(=O)NCCCNCCCCNCc1ccccc1-c1ccccc1)NO
rule met
CC(C)(C)c1ccc(CNCCCCNCCCNC(=O)CCCCCCCC(=O)NO)cc1
rule met
O=C(CCCCCCCC(=O)NCCCNCCCCNCCC(c1ccccc1)c1ccccc1)NO
rule met
CN(C)c1ccc(CNCCCCNCCCNC(=O)CCCCCCC(=O)NO)cc1
rule not met
O=C(CCCCCCCCC(=O)NCCCNCCCCNCCC(c1ccccc1)c1ccccc1)NO
rule met

With those in mind, consider the next compound.
Problem: Say whether `O=C(CCCCC(=O)NCCCNCCCCNCCSc1ccccc1)NO` shows inhibition of 50% or more.
Solution: rule not met

---

# Study system: Histone deacetylase (Homo sapiens) (UniProt Q13547+O15379+Q9UBN7+Q92769+Q9UQL6+Q8WUI4+Q9BY41+Q96DB2+P56524+Q9UKV0+Q969S8)
# Assay conditions: HeLa, at 1 µM
Recorded inhibition split into classes class A: < 30%; class B: ≥ 30% and < 50%; class C: ≥ 50%

Below, 5 molecules whose answers are already recorded.
O=C(CCCCCCC(=O)NCCCNCCCNCCCNCCC(c1ccccc1)c1ccccc1)NO
class C
CC(C)(C)c1ccc(CNCCCCNCCCNC(=O)CCCC(=O)NCc2ccc(C(=O)Nc3ccccc3N)cc2)cc1
class A
O=C(CCCCCC(=O)NCCCNCCCCNCCC(c1ccccc1)c1ccccc1)NO
class B
CC(C)c1ccc(CNCCCCNCCCNC(=O)CCCCCCC(=O)NO)cc1
class B
CN(C)c1ccc(CN(CCCNCCCCNCc2ccc(C(C)(C)C)cc2)C(=O)CCCCC(=O)NO)cc1
class A

Problem: Hi there! Could you help me figure out the category for `O=C(CCCCCCC(=O)NCCCNCCCCNCCSc1ccccc1)NO` please?
Solution: class A

Problem: Please indicate the class for `O=C(CCCCCCC(=O)NCCCNCCCCNCc1ccccc1-c1ccccc1)NO` based on its inhibition.
Solution: class B

Problem: Which inhibition band matches `CN(C)c1ccc(CN(CCCNCCCCN)C(=O)CCCCCCC(=O)NO)cc1` ?
Solution: class C
